Provenance of the data: ChEMBL document CHEMBL1268973

- experiment-description: Antioxidant activity assessed as ferrous ion chelating activity
- Type: functional
pEC50: −log10 of the molar value.
Is pEC50 at least 2? Then Y. If not, N.

Reference set, count: 4
O=C1C[C@@H](c2ccc(O)cc2)Oc2cc(O)cc(O)c21 :: N
COc1cc2oc(-c3ccc(O)c(O)c3)cc(=O)c2c(O)c1O[C@@H]1O[C@H](CO)[C@@H](O)[C@H](O)[C@H]1O :: N
O=c1cc(-c2ccc(O)c(O)c2)oc2cc(O)cc(O)c12 :: N
O=C1C[C@@H](c2ccc(O)c(O)c2)Oc2cc(O[C@@H]3O[C@H](CO)[C@@H](O)[C@H](O)[C@H]3O)cc(O)c21 :: N

Shift focus to the following entry.
# bool: pEC50 of O=C1C[C@@H](c2ccc(O)c(O)c2)Oc2cc(O)cc(O)c21 >= 2 Y

* * *

- Tested on: Radical scavenging activity
- experiment-description: Antioxidant activity of the compound assessed as DPPH radical scavenging activity after 30 mins
- Assay type: functional
readout-label: pEC50
Friendly reminder that pEC50 comes from taking -log10 of the concentration in mol/L.

Here is how some molecules turned out for pEC50.
COc1cc2oc(-c3ccc(O)cc3)cc(=O)c2c(O)c1O[C@@H]1O[C@H](CO)[C@@H](O)[C@H](O)[C@H]1O :: 3.80
O=C1C[C@@H](c2ccc(O)cc2)Oc2cc(O[C@@H]3O[C@H](CO)[C@@H](O)[C@H](O)[C@H]3O)cc(O)c21 :: 4.39

Give the reported value of pEC50 for this record: COc1cc2oc(-c3ccc(O)cc3)cc(=O)c2c(O)c1O 4.70

Give pEC50 for O=c1cc(-c2ccc(O)c(O)c2)oc2cc(O)cc(O)c12 5.21

Annotate the molecule O=c1cc(-c2ccc(O)c(O)c2)oc2cc(O[C@@H]3O[C@H](CO)[C@@H](O)[C@H](O)[C@H]3O)cc(O)c12 with its measured pEC50. 5.40

* * *

- Tested on: Radical scavenging activity
- experiment-description: Antioxidant activity of the compound assessed as DPPH radical scavenging activity after 30 mins
- Format: functional
readout-label: pEC50
Schema: pEC50 number; meaning minus log10 of the concentration expressed in molar units.

O=C1C[C@@H](c2ccc(O)c(O)c2)Oc2cc(O)cc(O)c21 :: 4.01
COc1cc2oc(-c3ccc(O)cc3)cc(=O)c2c(O)c1O[C@@H]1O[C@H](COC(C)=O)[C@@H](O)[C@H](O)[C@H]1O :: 3.95
COc1cc2oc(-c3ccc(O)c(O)c3)cc(=O)c2c(O)c1O[C@@H]1O[C@H](COC(C)=O)[C@@H](O)[C@H](O)[C@H]1O :: 4.02

Pending molecule:
Retrieve pEC50 measured for O=C1C[C@@H](c2ccc(O)c(O)c2)Oc2cc(O[C@@H]3O[C@H](CO)[C@@H](O)[C@H](O)[C@H]3O)cc(O)c21 and print it. 4.81

* * *

- Test system: Radical scavenging activity
- experiment-description: Antioxidant activity of the compound assessed as DPPH radical scavenging activity after 30 mins
- Format: functional
EC50 reference
Form entry: enter the amount, then its unit.

O=c1cc(-c2ccc(O)cc2)oc2cc(O[C@@H]3O[C@H](CO)[C@@H](O)[C@H](O)[C@H]3O)cc(O)c12 :: 20.4 µM
COc1cc2oc(-c3ccc(O)c(O)c3)cc(=O)c2c(O)c1O[C@@H]1O[C@H](CO)[C@@H](O)[C@H](O)[C@H]1O :: 81.2 µM
COc1ccc(-c2cc(=O)c3c(O)cc(O[C@@H]4O[C@H](CO)[C@@H](O)[C@H](O)[C@H]4O)cc3o2)cc1 :: 95 µM
O=C1C[C@@H](c2cc(O)cc(O)c2)Oc2cc(O)cc(O)c21 :: 32.1 µM
COc1cc2oc(-c3ccc(O)c(O[C@@H]4O[C@H](CO)[C@@H](O)[C@H](O)[C@H]4O)c3)cc(=O)c2c(O)c1O :: 31 µM

Indicate its recorded EC50; the molecule in question is CCOC(=O)[C@H]1O[C@@H](Oc2cc(O)c3c(=O)cc(-c4ccc(O)c(O)c4)oc3c2)[C@H](O)[C@@H](O)[C@@H]1O 13.2 µM

Consider the molecule O=C1C[C@@H](c2ccc(O)cc2)Oc2cc(O)cc(O)c21 . State its measured EC50. 72.3 µM

* * *

- experiment-description: Antioxidant activity assessed as ferrous ion chelating activity
- Assay type: functional
readout-label: pEC50
To interpret pEC50, take it as minus log10 of a concentration measured in moles per litre.

COc1cc2oc(-c3ccc(O)cc3)cc(=O)c2c(O)c1O[C@@H]1O[C@H](COC(C)=O)[C@@H](O)[C@H](O)[C@H]1O :: 2.35
O=c1cc(-c2ccc(O)c(O)c2)oc2cc(O[C@@H]3O[C@H](CO)[C@@H](O)[C@H](O)[C@H]3O)cc(O)c12 :: 2.96
CCOC(=O)[C@H]1O[C@@H](Oc2cc(O)c3c(=O)cc(-c4ccc(O)c(O)c4)oc3c2)[C@H](O)[C@@H](O)[C@@H]1O :: 2.48

Return pEC50 for the following compound: COc1cc2oc(-c3ccc(O)c(O)c3)cc(=O)c2c(O)c1O[C@@H]1O[C@H](COC(C)=O)[C@@H](O)[C@H](O)[C@H]1O 2.95

Give pEC50 for O=C1C[C@@H](c2cc(O)cc(O)c2)Oc2cc(O)cc(O)c21 0.79

For the compound COc1cc2oc(-c3ccc(O)c(O[C@@H]4O[C@H](CO)[C@@H](O)[C@H](O)[C@H]4O)c3)cc(=O)c2c(O)c1O , give its measured pEC50 value. 4.22
